- Test system: HEK-293T
- experiment-description: Multiplex assay against HEK293T
- Assay type: toxicity, cell-based
- experimental-parameters: human, 24 h, 10 µM, compound concentration 10 uM, replicate 2
Provide the recorded Population Apoptotic (%) for the entries that follow.
Note: unit % is implicit; provide only the numeric part.

Query block: Dear colleague, please send me the reported Population Apoptotic (%) for CSc1nc(NC2CCCC2)c([N+](=O)[O-])c(NC2CCCC2)n1 [GS-39783] when you can.
Result block: 37

Query block: Dear colleague, please send me the reported Population Apoptotic (%) for Cc1nn(C)c2nc(NNC(=O)Nc3cc(Cl)nc(Cl)c3)cc(C(C)C)c12 when you can.
Result block: 55

Query block: Dear colleague, please send me the reported Population Apoptotic (%) for CC(C)(O)C(=O)N1CCN(c2ccc(C(F)(F)F)c(C3=C(c4c[nH]c5ccccc45)C(=O)NC3=O)c2)CC1 when you can.
Result block: 66

Query block: Dear colleague, please send me the reported Population Apoptotic (%) for Cc1cc(-c2ccc3c(c2)CC[C@H]3N2CC3(CCN(C(=O)Cc4cn5cc(C)sc5n4)CC3)C2)ncn1 [PF-5190457] when you can.
Result block: 36

Query block: Dear colleague, please send me the reported Population Apoptotic (%) for Nc1nc(CC(=O)Nc2ccc(CCNC[C@H](O)c3ccccc3)cc2)cs1 [MIRABEGRON] when you can.
Result block: 35

Query block: Dear colleague, please send me the reported Population Apoptotic (%) for COc1ccc2c(c1OCc1ccccc1)C[C@@H](C(=O)O)N(C(=O)C(c1ccccc1)c1ccccc1)C2 [OLODANRIGAN] when you can.
Result block: 43

Query block: Dear colleague, please send me the reported Population Apoptotic (%) for O=C(NCCNCC(O)COc1ccc(O)cc1)N1CCOCC1.O=C(NCCNCC(O)COc1ccc(O)cc1)N1CCOCC1.O=C(O)/C=C/C(=O)O (centres undefined) [XAMOTEROL FUMARATE] when you can.
Result block: 33

Query block: Dear colleague, please send me the reported Population Apoptotic (%) for COc1c(Nc2ccc(S(C)(=O)=O)nc2C)ncnc1OC1CCN(C(=O)OC(C)C)CC1 [ADP-597] when you can.
Result block: 63

Query block: Dear colleague, please send me the reported Population Apoptotic (%) for CC(C)C[C@H](CO)Nc1nc(S[C@@H](C)c2ccccc2)nc2nc(N)sc12 [AZD-8797] when you can.
Result block: 51
